abundance fitness listing for selected variants.
B1: Membrane-associated guanylate kinase, WW and PDZ domain-containing protein 2, residues 601 to 682; numbered along this chain, Q86UL8 (parent)
chain: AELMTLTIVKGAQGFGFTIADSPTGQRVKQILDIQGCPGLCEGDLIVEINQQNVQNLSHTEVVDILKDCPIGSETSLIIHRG

# Variants of: B1
# assayDetails: abundance fitness (aPCA) (normalised: wild type 0, dead -1); higher = more abundant; growth selection in yeast, the domain comes from the species named
# measurementContext: Homo sapiens
Answer with a number only.

# mutantId, dataValue
measured = [
    ("G72C", 0.046),
    ("I19R", -1.16),
    ("E42C", -0.123),
    ("I78L", -0.053),
]

Quick one: abundance fitness for `Q35K` ?
-0.278

# input variant: `Q55S` ; wanted: its abundance fitness
-0.172

Reported abundance fitness, variant `I49G` : ____
-1.08

Data request, read-out abundance fitness, for `E42I`
-0.087

For the variant `R81E` , what abundance fitness is on record?
-0.419

# query: abundance fitness of entry `V54S`
-0.243

Find the recorded abundance fitness belonging to `E48M` and report it.
-0.144
